Biological target: T1, recombinant Motavizumab human IgE (rMota-hIgE) (human, UniProt P01854 1-428)
T1 construct: also called Recombinant IgE (argenx)
T1 sequence (P01854 other isoform, or with tags, fused parts or gaps limits assumed, form in doubt): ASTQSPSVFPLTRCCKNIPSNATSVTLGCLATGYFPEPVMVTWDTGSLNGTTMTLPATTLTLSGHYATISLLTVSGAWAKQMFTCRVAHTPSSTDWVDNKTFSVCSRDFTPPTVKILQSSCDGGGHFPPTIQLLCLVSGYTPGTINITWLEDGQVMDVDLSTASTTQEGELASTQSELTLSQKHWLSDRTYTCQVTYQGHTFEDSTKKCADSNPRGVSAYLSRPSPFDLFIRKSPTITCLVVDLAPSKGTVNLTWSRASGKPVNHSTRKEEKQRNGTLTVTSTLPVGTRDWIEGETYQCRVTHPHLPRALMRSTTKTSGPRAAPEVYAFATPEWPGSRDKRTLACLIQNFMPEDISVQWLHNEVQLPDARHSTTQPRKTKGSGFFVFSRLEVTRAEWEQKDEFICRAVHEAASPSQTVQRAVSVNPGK
Experiment: hIgE binding ELISA
Recorded Ratio EC50 pH 7.4/5.5 determines the label; the label ranges are bucket 1 = under 0.5, bucket 2 = from 0.5 up to 1, bucket 3 = 1 and over

Please let me know in which category the item OmaVH15G55H - VL3 (antibody, V domains shown) VH: EVQLVESGGGLVQPGGSLRLSCAVSGYSITSGHRWEWIRQAPGKGLEWVASIHYDHSTNYNPSVKGRITISRDDSKNTFYLQMNSLRAEDTAVYYCARATHYFGHWHFAVWGQGTLVTVSS VL: DIQLTQSPSSLSASVGDRVTITCRASQSVDYDGDSYMNWYQQKPGKAPKLLIEWGSYLRSGVPSRFSGSGSGTDFTLTISSLQPEDFATYYCQQNAEDPYTFGQGTKVEIK belongs. bucket 3

Which category fits this record: OMA VH15 - VL3D28HS31H (antibody, V domains shown) VH: EVQLVESGGGLVQPGGSLRLSCAVSGYSITSGHRWEWIRQAPGKGLEWVASIHYDGSTNYNPSVKGRITISRDDSKNTFYLQMNSLRAEDTAVYYCARATHYFGHWHFAVWGQGTLVTVSS VL: DIQLTQSPSSLSASVGDRVTITCRASQSVDYHGDHYMNWYQQKPGKAPKLLIEWGSYLRSGVPSRFSGSGSGTDFTLTISSLQPEDFATYYCQQNAEDPYTFGQGTKVEIK bucket 2

Class (by measured Ratio EC50 pH 7.4/5.5) for CL-2C mAb 37 (antibody, V domains shown, also called VKWT + VH33H100CH) VH: QVQLVQSGAEVMKPGSSVKVSCKASGYTFSWYHLEWVRQAPGHGLEWMGEIDPGTFTTNYNEKFKARVTFTADTSTSTAYMELSSLRSEDTAVYYCARFSHFSGSNHDYFDYWGQGTLVTVSS VL: EIVMTQSPATLSVSPGERATLSCRASQSIGTNIHWYQQKPGQAPRLLIYYASESISGIPARFSGSGSGTEFTLTISSLQSEDFAVYYCQQSWSWPTTFGGGTKVEIK bucket 1

Bin? OmaVH15G55HW100b - VL3 (antibody, V domains shown) VH: EVQLVESGGGLVQPGGSLRLSCAVSGYSITSGHRWEWIRQAPGKGLEWVASIHYDHSTNYNPSVKGRITISRDDSKNTFYLQMNSLRAEDTAVYYCARATHYFGHHHFAVWGQGTLVTVSS VL: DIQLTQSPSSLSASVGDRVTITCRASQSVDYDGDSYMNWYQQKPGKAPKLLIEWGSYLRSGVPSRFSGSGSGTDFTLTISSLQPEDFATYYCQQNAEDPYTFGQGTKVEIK bucket 1

Tag the class for OmaVH15G55H - VL3S31H (antibody, V domains shown) VH: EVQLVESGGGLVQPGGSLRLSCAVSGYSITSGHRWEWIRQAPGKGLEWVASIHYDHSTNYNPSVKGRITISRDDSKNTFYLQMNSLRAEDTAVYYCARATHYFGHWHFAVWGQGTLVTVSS VL: DIQLTQSPSSLSASVGDRVTITCRASQSVDYDGDHYMNWYQQKPGKAPKLLIEWGSYLRSGVPSRFSGSGSGTDFTLTISSLQPEDFATYYCQQNAEDPYTFGQGTKVEIK bucket 2

Would you mind sorting Oma VH15W100b - VL3 (antibody, V domains shown) VH: EVQLVESGGGLVQPGGSLRLSCAVSGYSITSGHRWEWIRQAPGKGLEWVASIHYDGSTNYNPSVKGRITISRDDSKNTFYLQMNSLRAEDTAVYYCARATHYFGHHHFAVWGQGTLVTVSS VL: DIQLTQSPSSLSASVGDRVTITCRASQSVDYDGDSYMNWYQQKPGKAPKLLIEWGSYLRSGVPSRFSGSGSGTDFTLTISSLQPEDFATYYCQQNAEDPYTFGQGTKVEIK into the appropriate category? bucket 2

Given OMA VH15 - VL3S31H (antibody, V domains shown) VH: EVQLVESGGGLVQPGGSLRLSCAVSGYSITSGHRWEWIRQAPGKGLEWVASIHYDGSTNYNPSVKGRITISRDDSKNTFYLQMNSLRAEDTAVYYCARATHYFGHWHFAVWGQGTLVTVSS VL: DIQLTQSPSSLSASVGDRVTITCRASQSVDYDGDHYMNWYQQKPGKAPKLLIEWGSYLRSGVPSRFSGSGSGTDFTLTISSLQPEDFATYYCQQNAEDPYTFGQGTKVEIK , name the class its Ratio EC50 pH 7.4/5.5 places it in. bucket 3

Which category does the recorded Ratio EC50 pH 7.4/5.5 put OmaVH15G55H - VL3D28H (antibody, V domains shown, also called OmaVH15G55H VL3D25H) VH: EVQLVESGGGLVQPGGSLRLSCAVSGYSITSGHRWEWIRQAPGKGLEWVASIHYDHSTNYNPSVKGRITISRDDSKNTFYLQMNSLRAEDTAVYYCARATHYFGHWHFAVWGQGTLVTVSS VL: DIQLTQSPSSLSASVGDRVTITCRASQSVDYHGDSYMNWYQQKPGKAPKLLIEWGSYLRSGVPSRFSGSGSGTDFTLTISSLQPEDFATYYCQQNAEDPYTFGQGTKVEIK in? bucket 3

Textbook exercise: identify the category of the binder given here, OMA VH15 - VL3 (antibody, V domains shown) VH: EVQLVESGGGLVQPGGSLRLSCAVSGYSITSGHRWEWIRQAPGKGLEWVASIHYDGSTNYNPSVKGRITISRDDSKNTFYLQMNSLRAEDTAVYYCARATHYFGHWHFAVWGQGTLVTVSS VL: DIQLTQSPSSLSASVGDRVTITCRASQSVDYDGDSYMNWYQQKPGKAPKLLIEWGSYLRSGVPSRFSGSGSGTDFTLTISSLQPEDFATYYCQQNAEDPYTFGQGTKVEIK , according to its measured value. bucket 2

Input OmaVH15G55HW100b - VL3D28H (antibody, V domains shown, also called OmaVH15G55HW100b VL3D25H) VH: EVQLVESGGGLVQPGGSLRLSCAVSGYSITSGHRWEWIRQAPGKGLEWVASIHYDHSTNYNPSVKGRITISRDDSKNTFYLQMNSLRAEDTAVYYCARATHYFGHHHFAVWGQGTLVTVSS VL: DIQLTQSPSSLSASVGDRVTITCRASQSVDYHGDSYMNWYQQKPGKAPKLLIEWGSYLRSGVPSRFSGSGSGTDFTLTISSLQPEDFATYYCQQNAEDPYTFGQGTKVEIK ; output its category bucket 1
